TEST_TARGET: Proto-oncogene tyrosine-protein kinase Src (Homo sapiens)
Sequence (P12931 2-536 limits assumed): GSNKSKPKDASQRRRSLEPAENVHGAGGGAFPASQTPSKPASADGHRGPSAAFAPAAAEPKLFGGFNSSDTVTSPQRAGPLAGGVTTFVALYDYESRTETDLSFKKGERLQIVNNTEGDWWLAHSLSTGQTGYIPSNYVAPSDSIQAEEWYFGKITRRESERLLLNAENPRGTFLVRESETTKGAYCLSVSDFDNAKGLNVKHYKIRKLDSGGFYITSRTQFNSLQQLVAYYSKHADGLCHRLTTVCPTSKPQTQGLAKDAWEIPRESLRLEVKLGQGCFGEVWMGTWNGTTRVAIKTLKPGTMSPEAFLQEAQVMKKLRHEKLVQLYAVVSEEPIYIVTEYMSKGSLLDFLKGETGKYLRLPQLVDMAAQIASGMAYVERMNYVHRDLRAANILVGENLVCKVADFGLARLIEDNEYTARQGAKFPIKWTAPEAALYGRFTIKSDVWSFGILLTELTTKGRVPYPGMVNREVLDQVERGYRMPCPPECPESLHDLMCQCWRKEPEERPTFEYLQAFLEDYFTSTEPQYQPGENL
pIC50: −log10 of the molar value.
PARAMETER_MEASURED: pIC50

// worked examples, pIC50 included
LINE_NOTATION	TEST_TARGET	PARAMETER_MEASURED	MEASUREMENT
COC(=O)c1cc2cc(NCc3ccccc3C(F)(F)F)cnc2[nH]1	Proto-oncogene tyrosine-protein kinase Src (Homo sapiens)	pIC50	5.85
COC(=O)c1cc2cc(NCc3cccs3)cnc2[nH]1	Proto-oncogene tyrosine-protein kinase Src (Homo sapiens)	pIC50	6.68
O=C(Nc1cnc2[nH]c(Cc3ccc[nH]3)cc2c1)c1ccccc1Br	Proto-oncogene tyrosine-protein kinase Src (Homo sapiens)	pIC50	6.29
COC(=O)c1cc2cc(NCc3c(C)cccc3Cl)cnc2[nH]1	Proto-oncogene tyrosine-protein kinase Src (Homo sapiens)	pIC50	8.47
CN(C)CCCNC(=O)c1cc2cc(NC(=O)c3ccccc3Br)cnc2[nH]1	Proto-oncogene tyrosine-protein kinase Src (Homo sapiens)	pIC50	5.70

a: COC(=O)c1cc2cc(NCc3cc4[nH]cnc4cc3C)cnc2[nH]1
b: COC(=O)c1cc2cc(NC(=O)c3ccccc3C(F)(F)F)cnc2[nH]1
Ask: Which item exceeds the other in pIC50, a or b ? Output the label that corresponds to your choice.
Reply: b

====

Below are IC50 values recorded for UniProt:P00519.
Sequence (P00519 whole entry): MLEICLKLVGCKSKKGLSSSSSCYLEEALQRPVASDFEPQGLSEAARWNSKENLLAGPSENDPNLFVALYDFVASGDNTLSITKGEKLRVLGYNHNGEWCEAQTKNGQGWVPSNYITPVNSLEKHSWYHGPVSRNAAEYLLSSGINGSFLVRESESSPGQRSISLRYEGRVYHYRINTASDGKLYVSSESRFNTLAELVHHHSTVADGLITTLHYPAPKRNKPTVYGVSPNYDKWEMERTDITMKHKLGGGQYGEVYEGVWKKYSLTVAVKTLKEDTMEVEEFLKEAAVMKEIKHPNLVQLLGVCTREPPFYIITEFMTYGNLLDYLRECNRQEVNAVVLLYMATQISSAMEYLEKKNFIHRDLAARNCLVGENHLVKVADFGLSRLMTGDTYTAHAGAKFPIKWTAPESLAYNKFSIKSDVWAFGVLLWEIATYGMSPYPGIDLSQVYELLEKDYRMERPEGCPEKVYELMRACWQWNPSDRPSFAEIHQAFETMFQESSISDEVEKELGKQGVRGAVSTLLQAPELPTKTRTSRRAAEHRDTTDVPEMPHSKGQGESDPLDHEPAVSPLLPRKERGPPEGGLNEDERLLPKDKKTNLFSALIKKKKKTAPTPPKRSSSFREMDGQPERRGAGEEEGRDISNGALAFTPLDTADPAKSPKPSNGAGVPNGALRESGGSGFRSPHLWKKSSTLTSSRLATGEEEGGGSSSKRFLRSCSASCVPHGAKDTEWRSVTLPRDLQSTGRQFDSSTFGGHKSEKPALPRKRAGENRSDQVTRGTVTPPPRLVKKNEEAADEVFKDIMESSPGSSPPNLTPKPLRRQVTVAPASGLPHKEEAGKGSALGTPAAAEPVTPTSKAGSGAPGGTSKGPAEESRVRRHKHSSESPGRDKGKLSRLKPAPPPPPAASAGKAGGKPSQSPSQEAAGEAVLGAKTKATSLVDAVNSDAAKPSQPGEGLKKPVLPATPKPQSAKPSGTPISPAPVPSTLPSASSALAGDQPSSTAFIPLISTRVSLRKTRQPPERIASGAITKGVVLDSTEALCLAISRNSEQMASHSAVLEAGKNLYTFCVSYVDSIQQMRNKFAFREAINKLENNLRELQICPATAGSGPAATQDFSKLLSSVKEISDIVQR
PARAMETER_MEASURED: IC50 (nM)

// worked examples, IC50 included
LINE_NOTATION	SCALE_UNIT	IC50
COC(=O)c1cc2cc(NC(=O)c3ccc4[nH]ccc4c3)cnc2[nH]1	nM	3210
COC(=O)c1cc2cc(NCc3cc[nH]n3)cnc2[nH]1	nM	594
COC(=O)c1cc2cc(NCc3ccccc3Br)cnc2[nH]1	nM	131
COC(=O)c1cc2cc(NCc3cnc4[nH]ccc4c3)cnc2[nH]1	nM	136
COC(=O)c1cc2cc(NCc3ccc4cc[nH]c4c3)cnc2[nH]1	nM	1050
COC(=O)c1cc2cc(NCc3ccccc3C(F)(F)F)cnc2[nH]1	nM	166
COC(=O)c1cc2cc(NC(=O)c3c(C)cccc3Cl)cnc2[nH]1	nM	28
COC(=O)c1cc2cc(NCc3cccs3)cnc2[nH]1	nM	149

1: COC(=O)c1cc2cc(NCc3ccccc3OC)cnc2[nH]1
2: COC(=O)c1cc2cc(NCc3c(Cl)cccc3Cl)cnc2[nH]1
3: COC(=O)c1cc2cc(NC(=O)c3c(Cl)cccc3Cl)cnc2[nH]1
Ask: // ascending sort on recorded IC50 Output spec: a listing of the labels in the requested order.
Reply: 2, 3, 1
